Origin of the recorded values: ChEMBL document CHEMBL3301555

Tested on: Plasmodium falciparum
Measurement Description: MMV: Measure of pLDH activity as indication of parasite viability. Gametocytogenesis of 3D7 Plasmodium falciparum strain was induced in vitro and asexual parasites were depleted with N-acetylglucosamine. Gametocytes were treated with dihydroartemisinin, epoxomicin, methylene blue, primaquine, puromycin or chloroquine in 96-well plates and the pLDH activity was evaluated using a modified Makler protocol. Mosquito infectivity was measured by the standard membrane feeding assay.
Assay type: functional
Design: concentration or dose not given beside the values
Assign Growth Inhibition to each entry below.
The reply should be a number in %, with the unit left off.

Recall the reported Growth Inhibition of COc1ccc(Nc2nc(NCc3ccccc3)c3ccccc3n2)cc1 when tested on Plasmodium falciparum.
17.5424

For Plasmodium falciparum, give the measured Growth Inhibition of the entry CCOc1ccc(-c2nc(NC(=O)c3cccc(S(C)(=O)=O)c3)sc2C)cc1
10.5858

Fill in: Growth Inhibition on Plasmodium falciparum, entry Cc1sc(NC(=O)c2ccccc2)c(C(c2cccs2)N2CCN(c3ccccc3)CC2)c1C (stereo not given)
0.692

State measured Growth Inhibition of the molecule Cc1ccc(C(=O)c2oc3ccc4c(C)cc(=O)oc4c3c2C)cc1 with Plasmodium falciparum.
1.1304

# return Growth Inhibition for O=C(Nc1ccc(-c2nc3ccccc3[nH]2)cc1)c1ccc(Cl)c(Cl)c1 , test system: Plasmodium falciparum
11.2736

Consider the molecule COc1ccc(C)c2sc(N(Cc3cccnc3)C(=O)c3ccc(C#N)cc3)nc12 tested on Plasmodium falciparum; state its Growth Inhibition.
-12.2204

Answer with Growth Inhibition of CCCCN(CCCC)S(=O)(=O)c1ccc(NC(=O)c2ccco2)cc1 measured for Plasmodium falciparum.
9.666

// output Growth Inhibition; input COc1ccc(C=C2SC(=N)N(c3ccccc3OC)C2=O)cc1 ; system Plasmodium falciparum
26.57

Please report the measured Growth Inhibition for COc1cc(C(=O)Nc2ccc(-c3nc4ccccc4[nH]3)cc2)cc(OC)c1OC tested on Plasmodium falciparum.
13.7592

State recorded Growth Inhibition with Plasmodium falciparum, entry COc1cccc(C(=O)Nc2ccc(-c3nc4ccccc4[nH]3)cc2)c1 , no comment.
15.5734

Look up Plasmodium falciparum data: Growth Inhibition of OC1=C2C(=Nc3ccccc3SC2c2ccc(Br)cc2)c2ccccc21 (stereo not given) , then report it.
30.3526

Give Plasmodium falciparum Growth Inhibition for the following molecule: COc1ccccc1CNC(=O)C1c2ccccc2C(=O)N(CC(C)C)C1c1cccs1 (stereo not given)
12.474

Determine reported Growth Inhibition for COc1nc(Nc2ccc(C(C)C)cc2)nc(OC)n1 ; test system: Plasmodium falciparum.
1.041

Tell me its Growth Inhibition on Plasmodium falciparum: CN(C)c1ccc(N2C(N)=NC(N)=NC2(C)C)cc1
5.041

Lab note: Plasmodium falciparum assay, enter Growth Inhibition for CCOc1ccc2c(c1)CN(Cc1ccc(Cl)cc1)CO2 here
25.403

Enter measured Growth Inhibition, system Plasmodium falciparum, for the molecule shown: CC(C)CNC(=O)c1c(N)n(CCc2ccccc2F)c2nc3ccccc3nc12
-1.2922

Give reported Growth Inhibition for O=C(CCc1ccco1)NC1CCN(CC2(c3ccc(Cl)cc3)CCC2)CC1 (Plasmodium falciparum)
18.8072

Give the observed Growth Inhibition of CCOc1cc(CNC(C)C(O)c2ccccc2)cc(Cl)c1OCC (stereo not given) for Plasmodium falciparum.
17.857

Provide Plasmodium falciparum Growth Inhibition reading for CCN(CC)CCNc1ncnc2c1[nH]c1ccc(Cl)cc12 .
10.0038

Supply Growth Inhibition measured with Plasmodium falciparum for CCC(O)c1ccc(Br)cc1NC(=O)c1cccc(Cl)c1 (stereo not given) .
24.26
